All values here come from the supplement of paper PMC9112550.

tested on: Escherichia coli TOP10; assay: shrunken log2 fold change of peptide-encoding DNA abundance (4.5 h post-induction vs induction); higher = less antimicrobial activity (less host growth inhibition); conditions: time post-induction: 4.5 h; library: site-saturation at positions 5, 18, 19, 20
Label scheme, based on shrunken log2 fold change: low value: < -0.08; medium value: ≥ -0.08 and < 0.03; high value: ≥ 0.03

Input RRIRGRPPRLPRPRPRPHSCPRP ; output its category high value

Input RRIRHRPPRLPRPRPRPWCMPRP ; output its category medium value

====

system: Escherichia coli TOP10; assay: shrunken log2 fold change of peptide-encoding DNA abundance (4.5 h post-induction vs induction); higher = less antimicrobial activity (less host growth inhibition); conditions: time post-induction: 4.5 h; library: site-saturation at positions 5, 18, 19, 20
Respond with true (1) for shrunken log2 fold change values of 0.3 and above, false (0) for values below.

- RRIRYRPPRLPRPRPRPEENPRP: false (0)
- RRIRERPPRLPRPRPRPSESPRP: false (0)
- RRIRRRPPRLPRPRPRPGLCPRP: true (1)
- RRIRSRPPRLPRPRPRPMLCPRP: false (0)
- RRIRRRPPRLPRPRPRPKHDPRP: true (1)

Could you now consider this next sequence?
Could you please find out whether RRIRHRPPRLPRPRPRPIWKPRP has shrunken log2 fold change that meets 0.3 or exceeds it? false (0)

====

// shrunken log2 fold change lookup, one value per entry
tested on: Escherichia coli TOP10; experiment: shrunken log2 fold change of peptide-encoding DNA abundance (4.5 h post-induction vs induction); higher = less antimicrobial activity (less host growth inhibition); conditions: time post-induction: 4.5 h; library: site-saturation at positions 5, 18, 19, 20
The response must contain the number and no unit.

Solved entries (count: 5):
* RRIRCRPPRLPRPRPRPWCMPRP | -0.585
* RRIRKRPPRLPRPRPRPIHIPRP | -0.39
* RRIRTRPPRLPRPRPRPHTVPRP | -0.244
* RRIRPRPPRLPRPRPRPHDYPRP | -0.0318
* RRIRTRPPRLPRPRPRPCTAPRP | -0.0896

Please turn your attention to the following entry.
Query the reported shrunken log2 fold change for Escherichia coli TOP10; item: RRIRHRPPRLPRPRPRPFMTPRP -0.188

====

// shrunken log2 fold change lookup, one value per entry
test system: Escherichia coli TOP10; assay: shrunken log2 fold change of peptide-encoding DNA abundance (4.5 h post-induction vs induction); higher = less antimicrobial activity (less host growth inhibition); conditions: time post-induction: 4.5 h; library: site-saturation at positions 5, 18, 19, 20;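 note: peptides expressed intracellularly from a pBAD plasmid library in pooled LB shake-flask culture, induced with 0.3% L-arabinose, DNA abundance read by NGS, three biological replicates, DESeq2 with apeglm shrinkage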

Solved entries (count: 4):
* RRIRYRPPRLPRPRPRPIWYPRP | -0.0575
* RRIRQRPPRLPRPRPRPDKTPRP | -0.00926
* RRIRQRPPRLPRPRPRPSVRPRP | -0.309
* RRIRKRPPRLPRPRPRPDLGPRP | 0.0986

Which shrunken log2 fold change value belongs to RRIRLRPPRLPRPRPRPEQWPRP ? -0.00018

Which shrunken log2 fold change value belongs to RRIRERPPRLPRPRPRPAKMPRP ? -0.194

Which shrunken log2 fold change value belongs to RRIRNRPPRLPRPRPRPNACPRP ? -0.0239

Which shrunken log2 fold change value belongs to RRIRGRPPRLPRPRPRPESWPRP ? 1.7

Which shrunken log2 fold change value belongs to RRIRFRPPRLPRPRPRPLYYPRP ? -0.885

Which shrunken log2 fold change value belongs to RRIRFRPPRLPRPRPRPTFRPRP ? -0.0216
